target: T1, human glucagon receptor (human, UniProt P47871 26-477); test: SPA, displacement of [125I]-Gcg from hGcgR membranes, 0.1% bacitracin
T1 construct: whole, on cells; Assayed as crude membranes of stably transfected HEK293 cells; also called hGcgR; GcgR
T1 sequence (P47871 26-477): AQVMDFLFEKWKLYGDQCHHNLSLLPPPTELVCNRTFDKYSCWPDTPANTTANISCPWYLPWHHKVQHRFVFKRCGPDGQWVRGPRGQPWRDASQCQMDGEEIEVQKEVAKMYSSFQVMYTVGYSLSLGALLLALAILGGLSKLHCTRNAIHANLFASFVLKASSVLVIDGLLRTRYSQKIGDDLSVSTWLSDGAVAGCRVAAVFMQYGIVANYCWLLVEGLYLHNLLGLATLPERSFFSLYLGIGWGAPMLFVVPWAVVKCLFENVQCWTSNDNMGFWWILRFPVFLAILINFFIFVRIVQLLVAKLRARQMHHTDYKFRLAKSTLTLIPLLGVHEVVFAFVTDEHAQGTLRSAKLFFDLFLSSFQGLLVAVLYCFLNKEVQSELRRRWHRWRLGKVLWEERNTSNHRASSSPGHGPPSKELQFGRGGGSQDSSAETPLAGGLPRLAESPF
Below, each of the binders is paired with its reported Ki value.

>  <Binder>
YXEGTXISDYSIXLDXKHQXDFVEXLLEGGPSSGAPPPS (Aib2; Iva6; αMeL13; Orn16; K17((2-[2-(2-Amino-ethoxy)-ethoxy]-acetyl)2-(γ-Glu)-CO-(CH2)18-CO2H); Aib20; 4-Pal25; C-terminal amide) [Example 76]

>  <Ki, nM>
358

$$$$
>  <Binder>
YXEGTFISDYSILLDKKAQXEFVEWLLAGGPSSGAPPPS (D-Ala2; K17((2-[2-(2-Amino-ethoxy)-ethoxy]-acetyl)2-(γ-Glu)-CO-(CH2)16-CO2H); Aib20; C-terminal amide) [Example 29]

>  <Ki, nM>
133

$$$$
>  <Binder>
YXEGTFISDYSILLDKKAQXDFVNWLLAGGPSSGAPPPS (D-Ala2; K17((2-[2-(2-Amino-ethoxy)-ethoxy]-acetyl)2-(γ-Glu)-CO-(CH2)16-CO2H); Aib20; C-terminal amide) [Example 19]

>  <Ki, nM>
335

$$$$
